# test.context: bacteroides thetaiotaomicron, 12 h, 2 µM
# Description: The drug is tested on Bacteroides thetaiotaomicron strain: 7330 for biotransformation. The drug concentrations were measured before and after a 12-h incubation by liquid-chromatography-coupled mass spectrometry (LC–MS)
Non-standard residues stand in square brackets, D forms with d. Residues, ends and D or L forms follow the SMILES beside them. pGlu = O=C1CC[C@@H](C(=O)O)N1; Thz = O=C(O)[C@@H]1CSCN1
property.measured: Bacterial Biotransformation

compound	property.measured	value.reported
O=C1CC[C@@H](C(=O)N2CSC[C@H]2C(=O)O)N1 [PIDOTIMOD] ([pGlu]-[Thz]-OH)	Bacterial Biotransformation	Compound metabolized
COC(=O)C1=C(C)NC(C)=C(C(=O)OC(C)C)C1c1cccc2nonc12 (configuration not stated)	Bacterial Biotransformation	Compound NOT metabolized
CC(=O)OCC(=O)[C@@]1(O)[C@@H](C)C[C@H]2[C@@H]3CCC4=CC(=O)C=C[C@]4(C)[C@@]3(F)[C@@H](O)C[C@@]21C [BETAMETHASONE ACETATE]	Bacterial Biotransformation	Compound metabolized
CC[C@H](C)C(=O)O[C@H]1CCC=C2C=C[C@H](C)[C@H](CC[C@@H]3C[C@@H](O)CC(=O)O3)[C@H]21	Bacterial Biotransformation	Compound metabolized

# Bacterial Biotransformation lookup, item COc1ccccc1OCC(O)CN1CCN(CC(=O)Nc2c(C)cccc2C)CC1 (configuration not stated)
Compound NOT metabolized

Moving on to CCCCC(=O)O[C@]1(C(=O)CO)[C@@H](C)C[C@H]2[C@@H]3CCC4=CC(=O)C=C[C@]4(C)[C@@]3(F)[C@@H](O)C[C@@]21C [BETAMETHASONE VALERATE]
Compound metabolized

Moving on to CNC(=C[N+](=O)[O-])NCCSCc1ccc(CN(C)C)o1
Compound NOT metabolized

* * *

# test.context: bacteroides thetaiotaomicron, 12 h, 2 µM
# Description: The drug is tested on Bacteroides thetaiotaomicron strain: 3731 for biotransformation. The drug concentrations were measured before and after a 12-h incubation by liquid-chromatography-coupled mass spectrometry (LC–MS)
property.measured: Bacterial Biotransformation

compound	value.reported
CCc1cccc2c3c([nH]c12)C(CC)(CC(=O)O)OCC3 (centres undefined)	Compound NOT metabolized
COc1ccc(CN2CCNCC2)c(OC)c1OC.Cl.Cl [TRIMETAZIDINE DIHYDROCHLORIDE]	Compound metabolized
CCN1CCCC1CNC(=O)c1cc(S(=O)(=O)CC)c(N)cc1OC (centres undefined) [AMISULPRIDE]	Compound NOT metabolized
Cc1ccc(-c2nc3ccc(C)cn3c2CC(=O)N(C)C)cc1	Compound NOT metabolized
CCCC(=O)Nc1ccc(OCC(O)CNC(C)C)c(C(C)=O)c1 (centres undefined)	Compound NOT metabolized
Nc1nc2ccc(OC(F)(F)F)cc2s1	Compound NOT metabolized
COc1ccc2c(c1)c(CC(=O)O)c(C)n2C(=O)c1ccc(Cl)cc1	Compound metabolized
Cc1cc2c(s1)Nc1ccccc1N=C2N1CCN(C)CC1	Compound NOT metabolized

Continue with the next compound.
# Bacterial Biotransformation lookup, item COC(=O)[C@H]1[C@H]2C[C@@H]3c4[nH]c5cc(OC)ccc5c4CCN3C[C@H]2C[C@@H](OC(=O)c2cc(OC)c(OC)c(OC)c2)[C@@H]1OC
Compound NOT metabolized

* * *

# assay.explanation: The drug is tested on Clostridium asparagiforme strain: DSM15981 for biotransformation. The drug concentrations were measured before and after a 12-h incubation by liquid-chromatography-coupled mass spectrometry (LC–MS)
# Assay type: ADME
# Set-up: dose 2 uM, timepoint 0 vs 12 hours
# test.context: enterocloster asparagiformis, 2 µM
property.measured: Bacterial Biotransformation

Worked set:
compound	property.measured	value.reported
C[C@@H]1CC[C@H]2[C@@H](C)C(=O)O[C@@H]3O[C@@]4(C)CC[C@@H]1[C@]32OO4	Bacterial Biotransformation	Compound metabolized
CC12CC3CC(C)(C1)CC(N)(C3)C2 [MEMANTINE]	Bacterial Biotransformation	Compound NOT metabolized
COc1cc2c(c(OC)c1OC)-c1ccc(OC)c(=O)cc1[C@@H](NC(C)=O)CC2	Bacterial Biotransformation	Compound NOT metabolized
CN(C(=O)CN(CCO)CC(=O)N(C)C(C)(C)Cc1ccccc1)C(C)(C)Cc1ccccc1	Bacterial Biotransformation	Compound NOT metabolized
CC(=O)O[C@]1(C(C)=O)CC[C@H]2[C@@H]3C=C(Cl)C4=CC(=O)[C@@H]5C[C@@H]5[C@]4(C)[C@H]3CC[C@@]21C [CYPROTERONE ACETATE]	Bacterial Biotransformation	Compound NOT metabolized

# Bacterial Biotransformation lookup, item COc1c(C)c2c(c(O)c1C/C=C(\C)CCC(=O)OCCN1CCOCC1)C(=O)OC2 [MYCOPHENOLATE MOFETIL]
Compound metabolized

Moving on to O=C1NCC2(CCN(CCc3ccccc3)CC2)O1 [FENSPIRIDE]
Compound NOT metabolized
